Hello, the source for this data is the supplement of paper PMC12783771, in case you need it.

B1: library; a variant is named by its letters at X, in order (parent)
chain: MNIQIGELAKRTACPVVTIRFYEQEGLLPPPGRSRGNFRLYGEEHVERLQFIRHCRSLDMPLSXVRTLLSYRKRPDQDCGEVXMLLDEHXRQVESRIGALLELXHXLVELREACSGARPAQSCGILQGLSDCVCDTRGTTAHXSD

- Variants of: B1
- assay-explanation: sfGFP reporter fluorescence (15 h) (µM FITC); higher = stronger transcriptional activation
- experimental-parameters: library round: Round 3b; ligand: 30 µM Zn

>  <mutation-string>
KIATHP

>  <sfGFP reporter fluorescence>
0.0972

$$$$
>  <mutation-string>
KIAVET

>  <sfGFP reporter fluorescence>
0.0607

$$$$
>  <mutation-string>
KNIVET

>  <sfGFP reporter fluorescence>
1.2

$$$$
>  <mutation-string>
DFAKAR

>  <sfGFP reporter fluorescence>
0.0435

$$$$
>  <mutation-string>
DNAVET

>  <sfGFP reporter fluorescence>
0.0603

$$$$
>  <mutation-string>
KIITET

>  <sfGFP reporter fluorescence>
0.0513

$$$$
>  <mutation-string>
DIATAT

>  <sfGFP reporter fluorescence>
0.0458

$$$$
>  <mutation-string>
KNATAP

>  <sfGFP reporter fluorescence>
0.311

$$$$
>  <mutation-string>
KFAKHR

>  <sfGFP reporter fluorescence>
0.33

$$$$
>  <mutation-string>
KNATET

>  <sfGFP reporter fluorescence>
0.34

$$$$
>  <mutation-string>
KIIVEP

>  <sfGFP reporter fluorescence>
0.0556

$$$$
